molecular target: histamine H3 receptor (Homo sapiens); construct: expressed in transfected cells; host or cells: CHO K1 cells carrying pSwitch, transfected with pGeneH3, mifepristone-induced; clone 3H3; membranes; test: Histamine H3 functional antagonist assay (method B), [35S]-GTPγS SPA on membranes; assay type: biochemical; details: membrane from cultured H3 cells, histamine at EC80, averages of a number of experiments, read-out: functional pKi (fpKi), histamine H3 functional antagonist assay (method B) (converted)
Sequence (Q9Y5N1 whole entry): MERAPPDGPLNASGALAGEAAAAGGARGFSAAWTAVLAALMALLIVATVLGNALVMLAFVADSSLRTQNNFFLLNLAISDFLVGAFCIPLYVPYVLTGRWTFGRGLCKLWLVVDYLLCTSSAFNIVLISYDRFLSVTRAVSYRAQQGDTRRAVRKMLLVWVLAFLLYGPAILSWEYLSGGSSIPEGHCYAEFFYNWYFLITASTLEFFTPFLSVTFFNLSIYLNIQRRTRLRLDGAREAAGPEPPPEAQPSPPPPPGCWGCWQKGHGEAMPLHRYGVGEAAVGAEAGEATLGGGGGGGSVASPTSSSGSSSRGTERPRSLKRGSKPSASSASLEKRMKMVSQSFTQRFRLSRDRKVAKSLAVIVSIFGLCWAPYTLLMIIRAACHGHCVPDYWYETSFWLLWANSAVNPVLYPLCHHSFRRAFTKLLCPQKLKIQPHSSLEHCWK
Measured Ki of individual entries

Q) Give recorded Ki with histamine H3 receptor (Homo sapiens) for the following compound: CC(=O)c1ccc(N2CCC(CC3CCN(C(C)C)CC3)CC2)cc1 [Example E26]
A) ≤ 1 nM

Q) Do the same for CC(=O)c1ccc(N2CCC(CC3CCN(C4CCC4)CC3)CC2)cc1 [Example E25] please
A) ≤ 1 nM

Q) Do the same for FC(F)(F)c1ccc(N2CCC(CC3CCN(C4CCC4)CC3)CC2)nn1 [Example E34] please
A) ≤ 1 nM

Q) Do the same for CC(C)N1CCC(CC2CCN(c3ccc(C#N)nc3)CC2)CC1 [Example E21] please
A) ≤ 1 nM

Continuing:
Q) Give recorded Ki with histamine H3 receptor (Homo sapiens) for the following compound: Cc1noc(-c2ccc(N3CCC(CC4CCN(C(C)C)CC4)CC3)cc2F)n1 [Example E16]
A) ≤ 0.316 nM
